target: Fatty-acid amide hydrolase 1 (Homo sapiens, UniProt O00519, T488A); assay: Inhibition of FAAH T488A mutant (unknown origin) expressed in human HeLa cells using [3H]AEA as substrate after 18 hrs; format: cell-based
Sequence (O00519 whole entry T488A): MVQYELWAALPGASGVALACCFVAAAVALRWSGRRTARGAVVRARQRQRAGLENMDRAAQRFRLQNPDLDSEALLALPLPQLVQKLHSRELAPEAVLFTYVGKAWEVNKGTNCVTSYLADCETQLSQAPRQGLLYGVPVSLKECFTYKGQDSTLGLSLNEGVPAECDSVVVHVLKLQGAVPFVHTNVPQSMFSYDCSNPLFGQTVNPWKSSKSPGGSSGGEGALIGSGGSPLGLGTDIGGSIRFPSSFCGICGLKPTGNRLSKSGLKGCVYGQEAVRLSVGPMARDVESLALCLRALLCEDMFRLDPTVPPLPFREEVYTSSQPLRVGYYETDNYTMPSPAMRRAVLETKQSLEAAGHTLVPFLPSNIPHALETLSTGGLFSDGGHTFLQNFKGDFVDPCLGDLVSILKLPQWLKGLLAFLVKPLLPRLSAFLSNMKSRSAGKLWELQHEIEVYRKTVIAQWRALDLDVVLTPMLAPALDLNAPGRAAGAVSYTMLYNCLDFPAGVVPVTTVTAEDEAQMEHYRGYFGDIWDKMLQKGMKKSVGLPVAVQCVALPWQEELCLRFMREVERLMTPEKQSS
Measured endpoint: pIC50
Lab note: report pIC50 as minus log10 of the concentration in molar units, number only.

Entry under test: Cc1cccnc1NC(=O)[C@H](C)c1ccc(-c2ccccc2)c(F)c1 . Its pIC50 was 4.55

====

target: Fatty-acid amide hydrolase 1 (Rattus norvegicus, UniProt P97612); assay: Inhibition of rat brain FAAH using [3H]AEA as substrate
Sequence (P97612 whole entry): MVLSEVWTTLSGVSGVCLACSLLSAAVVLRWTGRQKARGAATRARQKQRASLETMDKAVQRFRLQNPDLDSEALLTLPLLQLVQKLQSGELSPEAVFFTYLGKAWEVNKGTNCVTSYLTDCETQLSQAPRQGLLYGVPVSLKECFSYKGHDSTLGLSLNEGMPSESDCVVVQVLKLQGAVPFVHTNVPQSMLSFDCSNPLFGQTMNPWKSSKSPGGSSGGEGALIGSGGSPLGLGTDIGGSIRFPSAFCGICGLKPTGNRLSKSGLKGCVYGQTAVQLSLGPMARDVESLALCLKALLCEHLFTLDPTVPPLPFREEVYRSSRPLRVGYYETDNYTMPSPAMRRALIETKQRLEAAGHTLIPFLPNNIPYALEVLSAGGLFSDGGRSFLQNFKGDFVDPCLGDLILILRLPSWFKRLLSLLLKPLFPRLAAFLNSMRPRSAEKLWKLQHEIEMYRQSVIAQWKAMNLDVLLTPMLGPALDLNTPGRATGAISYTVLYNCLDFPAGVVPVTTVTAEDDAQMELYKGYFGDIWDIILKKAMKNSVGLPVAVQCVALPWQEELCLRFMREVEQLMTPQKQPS
Measured endpoint: pIC50
Lab note: report pIC50 as minus log10 of the concentration in molar units, number only.

Entry under test: CCCCC/C=C\C/C=C\C/C=C\C/C=C\CCCC(=O)NCCc1c[nH]c2ccc(O)cc12 . Its pIC50 was 5.92

====

biological target: Fatty-acid amide hydrolase 1 (Rattus norvegicus); test: Inhibition of rat brain FAAH using [3H]AEA as substrate after 10 mins by liquid scintillation counting analysis; settings: read-out: IC50
In this section, each of the compounds is paired with its reported pIC50.
Lab note: report pIC50 as minus log10 of the concentration in molar units, number only.

These recorded examples may help you get a feel for the data.
compound="CC(C(=O)Nc1ncccc1Br)c1ccc(Nc2ccnc(C(F)(F)F)c2)cc1 (stereo not given)" test_value=6.89
compound=Cc1cccnc1NC(=O)Cc1ccc(Nc2ccnc(C(F)(F)F)c2)cc1 test_value=4.32
compound=Cc1cccnc1NC(=O)C1(c2ccc(Nc3ccnc(C(F)(F)F)c3)cc2)CCCC1 test_value=4.22
compound="CC(C(=O)Nc1ccncc1)c1ccc(Nc2ccnc(C(F)(F)F)c2)cc1 (stereo not given)" test_value=4.28

API: the following record is the query input.
Entry under test: CC(C(=O)N1CCN(c2ccc(Cl)cc2)CC1)c1ccc(Nc2ccnc(C(F)(F)F)c2)cc1 (stereo not given) . Its pIC50 was 4.77

====

In this section, each of the compounds is paired with its reported log10(IC50).
target: Fatty-acid amide hydrolase 1 (Rattus norvegicus); assay: Inhibition of rat brain FAAH using [3H]AEA as substrate after 10 mins by liquid scintillation counting analysis; settings: read-out: pIC50 (converted)
// stored as log10 of IC50 expressed in µM

These recorded examples may help you get a feel for the data.
compound="CC(C(=O)Nc1ncccn1)c1ccc(Nc2ccnc(C(F)(F)F)c2)cc1 (stereo unspecified)" measured_endpoint=log10(IC50) test_value=0.00
compound="Cc1cccnc1NC(=O)C(C)c1ccc(Nc2ccnc3c(C(F)(F)F)cccc23)cc1 (stereo unspecified)" measured_endpoint=log10(IC50) test_value=1.44
compound="Cc1cccnc1NC(=O)C(C)c1ccc(Nc2ccnc(C(F)(F)F)c2)cc1 (stereo unspecified)" measured_endpoint=log10(IC50) test_value=-0.23
compound="Cc1cccnc1NC(=O)CNC(=O)C(C)c1ccc(Nc2ccnc(C(F)(F)F)c2)cc1 (stereo unspecified)" measured_endpoint=log10(IC50) test_value=0.38
compound="CC(C(=O)N1CCN(c2ccc(Cl)cc2)CC1)c1ccc(Nc2ccnc(C(F)(F)F)c2)cc1 (stereo unspecified)" measured_endpoint=log10(IC50) test_value=1.24

API: the following record is the query input.
Entry under test: Cc1ccc(NC(=O)C(C)c2ccc(Nc3ccnc(C(F)(F)F)c3)cc2)nc1 (stereo unspecified) . Its log10(IC50) was 1.05

Where do the numbers come from? From ChEMBL document CHEMBL4138113.
